- Experimental system: Calmodulin-1 (Homo sapiens) (UniProt P0DP23)
- Assay procedure: calcium-bound CALM1 binders on microarrays, profiling panel, artefact control for SMM control-protein annotation, biochemical, small-molecule microarray, Cy5-labelled CALM1, plus calcium (AID 1112);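 note: score merges spot fluorescence with signal to noise from triplicate slides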
- Measurement context: Cy5-CALM1 binding fluorescence, higher = more signal
Quick reference: composite z-score of the listed items.
Give the value as a plain number.

Recorded results for 2 compounds are shown here.
- Compound: "Cc1cc(C)c(C(O)C2C=CC3C(=O)N(c4ccccc4)C(=O)C3N2Nc2ccc(C(C)C)cc2)c(C)c1 (configuration not stated)"
  composite z-score: 1.37
- Compound: "COC(=O)[C@@]1(Cc2ccc(F)cc2)[C@H]2c3cc(C(=O)N4CCCC4)n(CCc4ccc(O)c(O)c4)c3C[C@H]2CN1C(=O)c1ccccc1"
  composite z-score: 0.694

Report composite z-score for CCOC(=O)C[C@H]1[C@H](OC(=O)c2cc3ccccc3oc2=O)[C@@H](NC(=O)c2ccc(-c3ccccc3)cc2)c2cc(OCCCO)ccc2N1C(=O)c1ccc2ccccc2n1 tested on Calmodulin-1 (Homo sapiens) (UniProt P0DP23).
-0.455

Return composite z-score measured with Calmodulin-1 (Homo sapiens) (UniProt P0DP23) given this compound: COc1cccc(/C=C/C=O)c1
-0.363
